I'd appreciate it if you could supply TGI values for the items below.
- Tested on: HOP-62 NSCLC
- assay.info: NCI tumour cell line growth inhibition, 48 h

compound	TGI
CCOC(=O)NC(Nc1ccc(C(=O)O)cc1)(C(F)(F)F)C(F)(F)F	> 100 µM
CC1=NN(C(=O)CC(=O)Nc2cccc(C)c2)C(=O)C1N=Nc1ccc(C(=O)O)cc1 (stereo unspecified)	> 100 µM
CC(C)(C)C(=O)C(N)C(=O)C(C)(C)C	> 100 µM
O=c1[nH]c(NCCCCCO)nc2nc[nH]c12	> 100 µM
Nc1nc2c(ncn2C2OC(CO)C(O)C2O)c(=O)[nH]1 (stereo unspecified)	211 µM

Here is another compound to look at.
Problem: Reported TGI for COc1ccc(C2NC(c3ccc(OC)cc3)C(C)C(=O)C2C)cc1 (stereo unspecified) : what is it?
Result: > 100 µM

---

I'd appreciate it if you could supply TGI values for the items below.
- Tested on: HOP-92 NSCLC
- assay.info: NCI tumour cell line growth inhibition, 48 h

Worked cases, TGI given:
molecule	measurement.label	measurement
COc1ccc(/C=C2\N=C3N(Cc4ccccc4)C=C(N)N3C2=O)cc1	TGI	> 100 µM
c1ccc2c(c1)n1nnnc1c1nnnn21	TGI	> 100 µM

Would you mind listing TGI for each of the following molecules?
1. CCOC(=O)CSc1nc(-c2ccc(Cl)cc2)c(C#N)c(=O)[nH]1
2. CCOC(=O)CCC(C(=O)OCC)n1nnc2cc(Nc3c(C)[n+]([O-])c4cc(Cl)ccc4[n+]3[O-])ccc21 (stereo unspecified)
3. O=C(CN1CCCC1)Nc1ccc2c(c1)C1Oc3ccccc3CC1CO2 (stereo unspecified)

Result:
["> 100 µM", "> 100 µM", "> 100 µM"]

Would you mind listing TGI for each of the following molecules?
1. CC(C)(C)[C@H]1NC(=O)CN1C(=O)OCc1ccccc1
2. COC(=O)c1c2c(cc3c1CC1(Cc4cc5c(cc4C1)CCCC5)C3)CCCC2
3. CC1CC(C)(C)CC(OCCN2CCCCC2)(c2ccccc2)C1 (stereo unspecified)
4. Oc1ccccc1/C=N/c1nc(-c2ccccc2)cs1
5. CCCC/C=C1/CCC(CN(C)C)C1=O (stereo unspecified)
6. CC1(c2ccc(Cl)cc2)c2ccccc2C(=O)N1CCCN1C(=O)c2ccccc2C1=O (stereo unspecified)

Result:
["31.9 µM", "> 100 µM", "21.7 µM", "> 100 µM", "3.83 µM", "> 100 µM"]

---

I'd appreciate it if you could supply TGI values for the items below.
- Tested on: HOP-92 NSCLC
- assay.info: NCI tumour cell line growth inhibition, 48 h
Answers are plain numbers, in µM.

compound	TGI, µM
COc1cc(/C=C/C(=O)/C=C/c2ccc(-n3ccnc3)cc2)ccc1O	27.1
Cc1nc2sc(C(=O)Nc3cccc(Cl)c3)c(N)c2cc1C(O)c1ccccc1 (centres undefined)	31.3
C#CCN(CCCOc1ccc(Cl)cc1Cl)CCCSC(=O)CCCCCN1/C(=C\C=C2/CCCC(/C=C/C3=[N+](CCCCCC(=O)[O-])c4ccccc4C3(C)C)=C2Cl)C(C)(C)c2ccccc21	3.53

Here is another compound to look at.
Problem: Reported TGI for COc1ccccc1-c1cc(=O)c2cccnc2[nH]1 : what is it?
Result: 60.2
